These entries and their values trace back to the Bradley open melting point set (2014).

Quantity Name: melting point (°C)
Dear colleague, please return just the value in °C, with no unit written.

Check out these entries, answers already filled in.
>>> reported("O=C(O)CS(=O)(=O)c1ccccc1 [(phenylsulfonyl)acetic acid]")
112
>>> reported("COc1ccc(Br)c(OC)c1 [1-bromo-2,4-dimethoxybenzene]")
26
>>> reported("CC(C)CCCC(C)(C)O [2,6-dimethyl-2-heptanol]")
-10

Look at this compound and give its reported melting point. CC1C=CC=CCCC=CC=CC=CC=CC(OC2O[C@H](C)[C@@H](O)[C@H](N)[C@@H]2O)CC(O)C(C(=O)O)C(O)CC(=O)CC(O)C(O)CCC(O)CC(O)CC(O)CC(=O)OC(C)C(C)C1O (stereo not given in full) [Nystatin]
160

Look at this compound and give its reported melting point. C#CC1(O)CCC2C3CCc4cc(O)ccc4C3C(OC)CC21C (stereo not given) [moxestrol]
280

###

Listed here are compounds together with their documented melting point.
Dear colleague, please return just the value in °C, with no unit written.

>>> reported("[C-]#[N+]c1c(C)cccc1C [2,6-dimethylphenyl isocyanide]")
74

Look at this compound and give its reported melting point. CCCCCCCCCCCC#N
4

Look at this compound and give its reported melting point. O=C(O)CCN1C(=O)COc2ccc(Cl)cc21
148

Look at this compound and give its reported melting point. COC(=O)c1ccc(C(=O)OC)cc1 [dimethyl terephthalate]
142

Look at this compound and give its reported melting point. Cc1cc(/C=C2\S/C(=N\c3ccccc3)N(CC#N)C2=O)c(C)n1-c1ccc(C(F)(F)F)cc1
73

###

Listed here are compounds together with their documented melting point.
Dear colleague, please return just the value in °C, with no unit written.

Check out these entries, answers already filled in.
>>> reported("O=[PH](c1ccccc1)c1ccccc1 [diphenylphosphine oxide]")
54
>>> reported("CSC(SC)=C(C#N)C(N)=O [2-Cyano-3,3-bis(methylsulfanyl)acrylamide]")
102

Now look at this one.
Look at this compound and give its reported melting point. Cc1ccc(C(N)=O)cc1 [p-toluamide]
163

###

Listed here are molecules together with their documented melting point.
# number then unit; no other words

Check out these entries, answers already filled in.
>>> reported("CCCC(C)Cl (configuration not stated) [2-chloropentane]")
"-137 °C"
>>> reported("CCN1CCNC(=O)C1=O [1-ethylpiperazine-2,3-dione]")
"110 °C"

Look at this molecule and give its reported melting point. CC1(C)OC(CP(c2ccccc2)c2ccccc2)C(CP(c2ccccc2)c2ccccc2)O1 (configuration not stated)
87 °C

Look at this molecule and give its reported melting point. CC(C)(C)c1cc(C(C)(C)C)cc(C(C)(C)C)c1 [1,3,5-tri-tert-butylbenzene]
71 °C

Look at this molecule and give its reported melting point. CNC(=O)Oc1ccccc1OC(C)C [propoxur]
91.5 °C

Look at this molecule and give its reported melting point. CN1CCN(CCCN2c3ccccc3Sc3ccccc32)CC1 [perazine]
53 °C

Look at this molecule and give its reported melting point. C=C(CC1c2ccccc2C(=O)N1Cc1ccccc1)c1ccccc1 (configuration not stated) [2-Benzyl-3-(2-phenyl-2-propenyl)isoindolin-1-one]
70.5 °C

Look at this molecule and give its reported melting point. CCc1ccc2c(c1)C(=O)c1ccccc1C2=O [2-ethylanthraquinone]
109 °C

Look at this molecule and give its reported melting point. COc1cc(C(=O)O)ccc1O [vanillic acid]
214 °C

Look at this molecule and give its reported melting point. C[C@H](N)C(=O)N[C@@H](C)C(=O)O [L-Alanyl-L-alanine]
280 °C

Look at this molecule and give its reported melting point. C/C=C/C=O [(2E)-But-2-enal]
-76 °C

Look at this molecule and give its reported melting point. Nc1cc([N+](=O)[O-])ccc1Cl [2-chloro-5-nitroaniline]
119 °C

Look at this molecule and give its reported melting point. CCCCCCCCCCCCCCCCCC(=O)OCC [ethyl stearate]
35 °C

Look at this molecule and give its reported melting point. CC(C)(C)OC(=O)N1CCC[C@@H](O)C1 [(R)-1-boc-3-hydroxypiperidine]
47 °C

Look at this molecule and give its reported melting point. CC(=O)Nc1cccc(O)c1 [3-acetamidophenol]
148 °C

###

Listed here are compounds together with their documented melting point.
Dear colleague, please return just the value in °C, with no unit written.

Check out these entries, answers already filled in.
>>> reported("CCCCCCO")
-52
>>> reported("CCOC(=O)[C@H](C)O [ethyl l-lactate]")
-25
>>> reported("Cc1ccc(O)cc1")
33

Look at this compound and give its reported melting point. CCOC(=O)c1cc(C)n(C2=CC(C)N=N2)n1 (centres undefined) [ethyl 5,5'-dimethyl-1'H-1,3'-bipyrazole-3-carboxylate]
121

Look at this compound and give its reported melting point. COC(=O)CCCCC(=O)OC [Dimethyl adipate]
8

Look at this compound and give its reported melting point. COc1c(OC)c(=O)c1=O
55

Look at this compound and give its reported melting point. Cc1cc(-c2ccccc2)[nH]n1
126

Look at this compound and give its reported melting point. C[C@@H](NC(=O)OC(C)(C)C)C(=O)O
83

Look at this compound and give its reported melting point. NC(CC(=O)O)C(=O)O (centres undefined)
275

Look at this compound and give its reported melting point. CCCCCCCCCCCCC(=O)O
44.5

###

Please use True for melting point under 50 °C and False for everything else, ties included.

Recorded results for 3 compounds are shown here.
>>> discrete_label("Cc1ccc(-c2ccccc2)cc1")
"True"
>>> discrete_label("COCCOC [1,2-dimethoxyethane]")
"True"
>>> discrete_label("CC(C)(C)I [2-iodo-2-methylpropane]")
"True"

Proceed to the following item.
Confirm or reject: melting point of O=C5\C=C4/C(C3CCC2(C(CCC2OC(=O)c1ccccc1)C3CC4)C)(C)CC5 (stereo not given) [testosterone benzoate] lies strictly below 50 °C
False

###

Please use TRUE for melting point under 100 °C and FALSE for everything else, ties included.

Recorded results for 5 compounds are shown here.
>>> discrete_label("CCCCC(=O)N(Cc1ccc(-c2ccccc2-c2nnn[nH]2)cc1)C(C(=O)O)C(C)C (stereo unspecified)")
"FALSE"
>>> discrete_label("CCCCCC=O")
"TRUE"
>>> discrete_label("O=C(Cl)c1ccc([N+](=O)[O-])cc1 [4-nitrobenzoyl chloride]")
"TRUE"
>>> discrete_label("CC(=O)Nc1ccc(C(=O)O)cc1")
"FALSE"
>>> discrete_label("O=C1Nc2ccccc2C1=O")
"FALSE"

Confirm or reject: melting point of CC(C)(C)OC(=O)N[C@H](Cc1cccc(F)c1)C(=O)O lies strictly below 100 °C
TRUE

Confirm or reject: melting point of Cc1nc(-c2ccccn2)sc1C(=O)O lies strictly below 100 °C
FALSE

Confirm or reject: melting point of O=C(O)/C=C/c1cccc(OC(F)(F)F)c1 lies strictly below 100 °C
TRUE

Confirm or reject: melting point of CN1C(=O)C(=NNc2c(Br)cc(Br)cc2Br)C(=O)N(C)C1=O lies strictly below 100 °C
FALSE

Confirm or reject: melting point of CCCCNC(=O)NS(=O)(=O)c1ccc(C)cc1 [Tolbutamide] lies strictly below 100 °C
FALSE

Confirm or reject: melting point of CCN(CC)c1ccccc1 [N,N-Diethylaniline] lies strictly below 100 °C
TRUE

Confirm or reject: melting point of CC1(C)[C@H]2CC[C@]1(C)C(=O)C2 lies strictly below 100 °C
FALSE

Confirm or reject: melting point of NCC(=O)O lies strictly below 100 °C
FALSE

Confirm or reject: melting point of COC(=O)C1C(=O)C=C(O)CC1C (stereo unspecified) [methyl 4-hydroxy-6-methyl-2-oxo-3-cyclohexene-1-carboxylate] lies strictly below 100 °C
FALSE

###

Please use Met for melting point under 90 °C and Not met for everything else, ties included.

>>> discrete_label("CC1(C)OC(=O)NC1=O [5,5-dimethyloxazolidine-2,4-dione]")
"Met"
>>> discrete_label("Clc1cc(Cl)c(-c2cc(Cl)c(Cl)cc2Cl)cc1Cl [PCB-153]")
"Not met"
>>> discrete_label("c1ccc2c(c1)cc1ccc3cccc4ccc2c1c34 [Benzo[a]pyrene]")
"Not met"
>>> discrete_label("CC#N [methyl_cyanide]")
"Met"
>>> discrete_label("CC(C)(C)N [tert-butylamine]")
"Met"
>>> discrete_label("C[C@H](CS)C(=O)N1CCC[C@H]1C(=O)O [Captopril]")
"Not met"
>>> discrete_label("C[SiH](C)O[Si](C)(C)O[SiH](C)C [1,1,3,3,5,5-hexamethyltrisiloxane]")
"Met"
>>> discrete_label("Nc1ccc(S(=O)(=O)Nc2ncccn2)cc1 [sulfadiazine]")
"Not met"

Confirm or reject: melting point of CC(C)(C)OC(=O)N[C@@H](Cc1ccccc1)C(=O)O [boc-phenylalanine] lies strictly below 90 °C
Met

Confirm or reject: melting point of CCCCCCCCC [N-nonane] lies strictly below 90 °C
Met

Confirm or reject: melting point of CC1=C(C)C(=O)C(C(CCCCCC(=O)O)c2ccccc2)=C(C)C1=O (configuration not stated) [seratrodast] lies strictly below 90 °C
Not met

Confirm or reject: melting point of O=C(O)c1cc(Cl)sc1Cl [2,5-dichlorothiophene-3-carboxylic acid] lies strictly below 90 °C
Not met

Confirm or reject: melting point of CCCCCCCOc1ccc(C(=O)O)cc1 [4-n-heptyloxybenzoic acid] lies strictly below 90 °C
Not met
